Target: T1, human common cytokine receptor γ-chain (IL-2Rγ) (human, UniProt P31785 23-262, limits assumed)
T1 construct: Recombinant human IL-2Rγ protein, coated (ELISA) or amine-coupled to a CM5 chip (SPR); also called hu IL-2R; CD132
T1 sequence: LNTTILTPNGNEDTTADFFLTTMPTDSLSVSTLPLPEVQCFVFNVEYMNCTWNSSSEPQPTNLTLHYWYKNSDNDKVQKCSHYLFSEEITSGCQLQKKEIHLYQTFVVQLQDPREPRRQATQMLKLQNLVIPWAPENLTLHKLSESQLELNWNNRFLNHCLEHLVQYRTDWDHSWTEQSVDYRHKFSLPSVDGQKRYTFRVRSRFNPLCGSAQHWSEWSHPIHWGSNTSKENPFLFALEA
Test: P.E. off-rate SPR
koff strictly under 0.003 s⁻¹ means condition met; at 0.003 s⁻¹ or over means condition not met.

INSERT INTO assay_data (binder, class_assignment) VALUES
  ('FJ1427_P035MP07E05 (VHH, tested as periplasmic extract; also called Clone nr) VHH: EVQLVESGGGLVQAGGSLRLSCAASGRTLSRYAMGWFRQAPGKEREFVTANSWGGDTYYADSVQGRFTFSRDNAKNTVYLQMNSLQPEDTAVYYCAAAPTSFATTAYSSSNSYAYWGQGTQVTVSS', 'condition not met'),
  ('FJ1427_P035MP07H07 (VHH, tested as periplasmic extract; also called Clone nr) VHH: QVQLVESGGGLVQAGDSLRLSCAASGRTLSRYAMGWFRQAPGKEREFVAATSWGGDSYYADSVEGRFTFSRDNAKNAVYLQMNSLQPEDTAVYYCAAAPTSFATTAYSSSNSYANWGQGTQVTVSS', 'condition not met'),
  ('FJ1427_P035MP07B05 (VHH, tested as periplasmic extract; also called Clone nr; 610) VHH: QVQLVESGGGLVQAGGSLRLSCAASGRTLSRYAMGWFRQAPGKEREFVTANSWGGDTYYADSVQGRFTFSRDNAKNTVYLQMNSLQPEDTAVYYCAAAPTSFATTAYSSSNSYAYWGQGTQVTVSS', 'condition met'),
  ('FJ1427_P035MP07E09 (VHH, tested as periplasmic extract; also called Clone nr) VHH: QVQLQESGGGLVQAGGSLRLSCAASGRTLSRYAMGWFRQAPGKEREFVTANSWGGDTYYADSVQGRFTFSRDNAKNTVYLQMNSLQPEDTAVYYCAAAPTSFATTAYSSSNSYAYWGQGTQVTVSS', 'condition not met'),
  ('FJ1427_P035MP07H04 (VHH, tested as periplasmic extract; also called Clone nr) VHH: QVQLVESGGGLVQAGGSLRLSCAASGRTLSRYAMGWFRQAPGKEREFVAAMSWGGDTFYADSVEGRFTFSRDNAEIAVYLQMNSLQPEDTAVYYCAAAPTSFATTAYSSSNSYAYWGQGTQVTVSH', 'condition met'),
  ('FJ1427_P035MP07C09 (VHH, tested as periplasmic extract; also called Clone nr; 643) VHH: QVQLVESGGGLVQAGGSLRLSCAASGRTLSRYAMGWFRQAPGKEREYVAIDSWGGDTFYADSVEGRFTFSRDNAKNEVYLQMNSLQPEDTAVYYCAGAPTSFATTAYSSSNSYRYWGQGTQVTVSS', 'condition met'),
  ('FJ1427_P035MP07C02 (VHH, tested as periplasmic extract; also called Clone nr; 587) VHH: EVQLVESGGGWVQVGESLRLSCAPSGRTFVSGIMGWFRQTPGKEREFVARIILNNNSTRYTDSVKGRFTISRDSAKNTMYLQMNTLRPEDTAVYYCAARDRYGSGNSLSPSAYDYWGQGTQVTVSS', 'condition not met'),
  ('FJ1427_P035MP07E06 (VHH, tested as periplasmic extract; also called Clone nr) VHH: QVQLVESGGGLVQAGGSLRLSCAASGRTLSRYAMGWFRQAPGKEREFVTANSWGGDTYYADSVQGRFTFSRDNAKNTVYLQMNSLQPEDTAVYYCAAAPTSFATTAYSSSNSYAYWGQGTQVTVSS', 'condition met'),
  ('FJ1427_P035MP07A02 (VHH, tested as periplasmic extract; also called Clone nr) VHH: QVQLVESGGGLVQAGGSLRLSCAASGRALSRLAMGWFRQAPGKEREFVVASSWGDDTFYADSVKGRFTFSRDNAKNTVYLQMNSLQPGDTAVYYCAAAPTSFATTAYSSSNSYAYWGQGTQVTASS', 'condition met'),
  ('FJ1427_P035MP07B01 (VHH, tested as periplasmic extract; also called Clone nr) VHH: QVQLVESGGGLVQAGGSLRLSCAASGRTLSRYAMGWFRQAPGKEREFVTANSWGGDTYYADSVQGRFTFTRDNAKNTVYLQMNSLQPEDTAVYYCAAAPTSFATTAYSSSNSYAYWGQGTQVTVSS', 'condition met'),
  ('FJ1427_P035MP07G09 (VHH, tested as periplasmic extract; also called Clone nr; 647) VHH: QVQLQESGGGLVQAGGSLRLSCAASGRTLSRVAMGWFRQAPGKEREFVAADSWGGDTFYADSVEGRFTFSRDNAKNAVYLQMNSLQPEDTAVYFCAGAPASFATTAYSSSNSYSYWGQGTQVTVSS', 'condition met'),
  ('FJ1427_P035MP07B02 (VHH, tested as periplasmic extract; also called Clone nr) VHH: EVQLVESGGGLVQAGGSLRLSCAASGRALSRLAMGWFRQAPGKEREFVVASSWGDDTFYADSVKGRFTFSRDNAKNTVYLQMNSLQPGDTAVYYCAAAPTSFATTAYSSSNSYAYWGQGTQVTVSS', 'condition met');
